biological target: HCV NS3 helicase NS3h_1b(con1) (Hepatitis C virus genotype 1b); construct: truncated C-terminally His-tagged NS3 proteins lacking the N-terminal protease, called NS3h; His-tag (C); made in house; assay: biochemical; type: biochemical, hepatitis C virus genotype 1b(con1); details: genotype 1b (con1); read-out: Target Potency MBHA (IC50 avg., μM) 1b (con1)
Sequence (Q9WMX2 1192-1657): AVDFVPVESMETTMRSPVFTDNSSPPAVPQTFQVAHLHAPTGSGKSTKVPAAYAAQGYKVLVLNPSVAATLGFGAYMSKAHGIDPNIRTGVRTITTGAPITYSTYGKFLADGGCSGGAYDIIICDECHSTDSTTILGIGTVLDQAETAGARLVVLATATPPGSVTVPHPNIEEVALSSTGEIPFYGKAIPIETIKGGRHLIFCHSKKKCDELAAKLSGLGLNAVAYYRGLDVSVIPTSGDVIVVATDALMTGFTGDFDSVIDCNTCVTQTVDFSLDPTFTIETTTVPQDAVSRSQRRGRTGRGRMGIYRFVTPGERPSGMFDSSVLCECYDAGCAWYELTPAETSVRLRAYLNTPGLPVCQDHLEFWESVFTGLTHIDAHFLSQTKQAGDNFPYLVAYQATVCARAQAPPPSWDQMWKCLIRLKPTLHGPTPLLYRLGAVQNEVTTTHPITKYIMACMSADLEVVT
Lab note: cut-off is 6 µM. Strictly less in IC50 is Met. Exactly 6 µM or more is Not met.

| COMPOUND | TARGET | LABEL_CLASS |
| --- | --- | --- |
| Cc1ccc2nc(-c3ccc4nc(-c5ccc(NC(=O)c6ccc(F)cc6)cc5)sc4c3)sc2c1S(=O)(=O)O.N [Compound 7] | HCV NS3 helicase NS3h_1b(con1) (Hepatitis C virus genotype 1b) | Met |
| Cc1ccc2nc(-c3ccc4nc(-c5ccc(NC(=O)c6cccc(C(F)(F)F)c6)cc5)sc4c3)sc2c1S(=O)(=O)O [Compound 20] | HCV NS3 helicase NS3h_1b(con1) (Hepatitis C virus genotype 1b) | Not met |
| Cc1ccc2nc(-c3ccc4nc(-c5ccc(NC(=O)c6ccc(C(C)(C)C)cc6)cc5)sc4c3)sc2c1S(=O)(=O)O [Compound 13] | HCV NS3 helicase NS3h_1b(con1) (Hepatitis C virus genotype 1b) | Not met |
| Cc1ccc2nc(-c3ccc4nc(-c5ccc(NC(=O)c6ccc7nc(-c8ccc(NC(=O)OCC9c%10ccccc%10-c%10ccccc%109)cc8)sc7c6)cc5)sc4c3)sc2c1S(=O)(=O)O.N [Compound 36] | HCV NS3 helicase NS3h_1b(con1) (Hepatitis C virus genotype 1b) | Met |
| Cc1ccc2nc(-c3ccc4nc(-c5ccc(NC(=O)c6cc(F)ccc6C(F)(F)F)cc5)sc4c3)sc2c1S(=O)(=O)O [Compound 26] | HCV NS3 helicase NS3h_1b(con1) (Hepatitis C virus genotype 1b) | Not met |

Problem: Take the compound Cc1ccc2nc(-c3ccc4nc(-c5ccc(NC(=O)c6ccc7nc(-c8ccc(N)cc8)sc7c6)cc5)sc4c3)sc2c1S(=O)(=O)O [Compound 35] and say whether its IC50 is less than 6 µM.
Solution: Met

Problem: Take the compound Cc1ccc2nc(-c3ccc4nc(-c5ccc(NC(=O)Nc6ccccc6)cc5)sc4c3)sc2c1S(=O)(=O)O.N [Compound 52] and say whether its IC50 is less than 6 µM.
Solution: Met

Problem: Take the compound Cc1ccc(C(=O)Nc2ccc(-c3nc4ccc(-c5nc6ccc(C)c(S(=O)(=O)O)c6s5)cc4s3)cc2)cc1 [Compound 11] and say whether its IC50 is less than 6 µM.
Solution: Met

Problem: Take the compound Cc1ccc2nc(-c3ccc4nc(-c5ccc(NC(=O)c6ccc(Cl)c(Cl)c6)cc5)sc4c3)sc2c1S(=O)(=O)O [Compound 18] and say whether its IC50 is less than 6 µM.
Solution: Met

Problem: Take the compound Cc1ccc2nc(-c3ccc4nc(-c5ccc(NC(=O)Nc6ccc(C(F)(F)F)cc6)cc5)sc4c3)sc2c1S(=O)(=O)O.N [Compound 47] and say whether its IC50 is less than 6 µM.
Solution: Met

Problem: Take the compound Cc1ccc2nc(-c3ccc4nc(-c5ccc(NC(=O)c6cccc7ccccc67)cc5)sc4c3)sc2c1S(=O)(=O)O.N [Compound 49] and say whether its IC50 is less than 6 µM.
Solution: Met

Problem: Take the compound Cc1ccc2nc(-c3ccc(NC(=O)c4ccc(NC(=O)c5ccc(N)cc5)cc4)cc3)sc2c1S(=O)(=O)O.N [Compound 46] and say whether its IC50 is less than 6 µM.
Solution: Not met

Problem: Take the compound Cc1ccc2nc(-c3ccc4nc(-c5ccc(NC(=O)c6ccc(NC(=O)OCC7c8ccccc8-c8ccccc87)cc6)cc5)sc4c3)sc2c1S(=O)(=O)O [Compound 16] and say whether its IC50 is less than 6 µM.
Solution: Met

###

molecular target: E. coli SSB-Cy5-dT15 complex (Escherichia coli); construct: purchased Promega; assay: Escherichia coli SSB Cy5-dT15 binding assay (fluorescence polarization); details: read-out: SSB EC50
Sequence (P0AGE0 2-178, one chain of several): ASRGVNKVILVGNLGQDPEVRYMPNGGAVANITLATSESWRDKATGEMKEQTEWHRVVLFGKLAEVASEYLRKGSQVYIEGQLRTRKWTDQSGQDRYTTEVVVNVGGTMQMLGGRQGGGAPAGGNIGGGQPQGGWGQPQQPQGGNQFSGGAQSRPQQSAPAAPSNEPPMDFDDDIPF
READOUT_LABEL: EC50 (µM)
Answers are plain numbers, in µM.

Some compounds with recorded EC50:
| COMPOUND | EC50 (µM) |
| --- | --- |
| Cc1ccc2nc(-c3ccc4nc(-c5ccc(NC(=O)c6cc(C(F)(F)F)ccc6F)cc5)sc4c3)sc2c1S(=O)(=O)O [Compound 25] | 12 |
| Cc1ccc2nc(-c3ccc4nc(-c5ccc(NC(=O)c6ccc(N)cc6)cc5)sc4c3)sc2c1S(=O)(=O)O [Compound 6] | 3 |
| Cc1ccc2nc(-c3ccc(NC(=O)c4ccc(NC(=O)c5ccc(C(F)(F)F)cc5)cc4)cc3)sc2c1S(=O)(=O)O.N [Compound 44] | 23 |
| COC(=O)c1ccc(C(=O)Nc2ccc(-c3nc4ccc(-c5nc6ccc(C)c(S(=O)(=O)O)c6s5)cc4s3)cc2)cc1 [Compound 9] | 2 |
| Cc1ccc2nc(-c3ccc4nc(-c5ccc(NC(=S)Nc6ccccc6)cc5)sc4c3)sc2c1S(=O)(=O)O.N [Compound 50] | 7 |
| Cc1ccc2nc(-c3ccc4nc(-c5ccc(NC(=O)c6c(F)cccc6C(F)(F)F)cc5)sc4c3)sc2c1S(=O)(=O)O [Compound 21] | 13 |

Count: 2. Required value per item: EC50.
1. Cc1ccc2nc(-c3ccc(NC(=O)c4ccc(NC(=O)c5ccc(NC(=O)OCC6c7ccccc7-c7ccccc76)cc5)cc4)cc3)sc2c1S(=O)(=O)O.N [Compound 51]
2. Cc1ccc(C(=O)Nc2ccc(-c3nc4ccc(-c5nc6ccc(C)c(S(=O)(=O)O)c6s5)cc4s3)cc2)cc1 [Compound 11]

Solution:
[7, 5]

###

biological target: HCV NS3 helicase NS3h_1b(con1) (Hepatitis C virus genotype 1b); construct: truncated C-terminally His-tagged NS3 proteins lacking the N-terminal protease, called NS3h; His-tag (C); made in house; experiment: MBHA screen of NCI mechanistic set library at 20 μM (percent inhibition, compound interference); assay type: biochemical; details: compounds at 20 μM, MBHA with a DNA substrate; calculated from Equation 1
READOUT_LABEL: Inh. (%) (Inhibition)
Numbers only, in %.

| COMPOUND | UNIT_STRING | RECORDED_RESULT |
| --- | --- | --- |
| CN/N=C(\C)C(CN1CCCCC1)C(C1=C(O)c2ccccc2OC1)c1ccccc1.Cl (centres unmarked) | % | −24.7 |
| CC(C)CCCCCCCCCCCCC(=O)NCC(=O)N[C@@H]1[C@@H](O)[C@H](O)[C@@H](Nc2ncnc3nc[nH]c23)O[C@H]1[C@@H](O)CO | % | −22.3 |
| CCOC(=O)c1sc2[n+](c1C)C(=O)/C(=C/c1ccc([N+](=O)[O-])cc1)S2.[Cl-] | % | −22.4 |

Count: 5. Required value per item: Inh. (%) (Inhibition).
1. CN(NC1=NCCO1)c1ccc2ccccc2c1
2. OCc1ccc(-c2ccc(-c3ccc(CO)s3)o2)s1
3. COc1ccc(/C=C\c2cc(OC)c(OC)c(OC)c2)cc1OP(=O)(O)O.N
4. Cc1c2ccncc2c(C)c2c1sc1ccccc12
5. O=C(CC1(O)C(=O)Nc2c(Cl)cc(Cl)cc21)c1cccc([N+](=O)[O-])c1 (centres unmarked)

Solution:
−22.3
−5.4
−19.4
8.9
−23.8

###

For each of the molecules below, state its Int.* (Ratio) (Interference).
target: HCV NS3 helicase NS3h_1b(con1) (Hepatitis C virus genotype 1b); construct: truncated C-terminally His-tagged NS3 proteins lacking the N-terminal protease, called NS3h; His-tag (C); made in house; test: MBHA screen of NCI mechanistic set library at 20 μM (percent inhibition, compound interference); assay type: biochemical; settings: compounds at 20 μM, MBHA with DNA substrate; assay interference calculated with Equation 2
Give bare numbers, in Ratio.

| MOLECULE | UNIT_STRING | Int.* (Ratio) (Interference) |
| --- | --- | --- |
| CC(=O)SC(SC(C)=O)SC(C)=O [Compound 637833] | Ratio | 0.80 |
| O=C(CC1(O)C(=O)Nc2c(Cl)cc(Cl)cc21)c1ccc([N+](=O)[O-])cc1 (centres unmarked) [Compound 635326] | Ratio | 1.11 |
| CC[C@@]1(O)C[C@H](OC2CC(N(C)C)C(O)C(C)O2)c2c(O)c3c(c(O)c2[C@H]1OC1CC(N(C)C)C(O)C(C)O1)C(=O)c1cccc(O)c1C3=O (some centres unmarked) [Compound 136044] | Ratio | 0.33 |

Count: 7. Required value per item: Int.* (Ratio) (Interference).
1. C=C(C#N)C(=O)OCC(CC)CC.C=C(C#N)C(=O)OCC(CC)CC.CS(C)=O.CS(C)=O.Nc1c(N=Nc2ccc(-c3ccc(N=Nc4cc(S(=O)(=O)[O-])c5ccccc5c4N)cc3)cc2)cc(S(=O)(=O)[O-])c2ccccc12.[Pt+2] [Compound 615593]
2. CCOc1cccc(/C=N/N=C2\C(=O)Nc3c(Cl)cc(Cl)cc32)c1O [Compound 329277]
3. CCN(CC)CCOC(=O)Cc1cccc2c(=O)cc(-c3ccccc3)oc12 [Compound 293015]
4. Br.COC1CN(C)C(=Nc2cccc3ccccc23)S1 (centres unmarked) [Compound 135996]
5. O=C1Cc2c([nH]c3ccc(Br)cc23)-c2ccccc2N1 [Compound 664704]
6. COC(=O)NC1C(C)OC(OC2C/C=C(/C)C3C=CC4C(OC5CC(OC6CC(O)C(OC7CC(O)C(OC)C(C)O7)C(C)O6)C(O)C(C)O5)C(C)CC(C)C4C3(C)/C(O)=C3\C(=O)OC4(CC(C)C(CO)=CC4/C=C\2C)C3=O)CC1(C)[N+](=O)[O-] (centres unmarked) [Compound 363182]
7. COc1ccc2[nH]c3c(C)c4ccncc4c(C)c3c2c1 [Compound 69187]

Solution:
[0.91, 1.08, 0.96, 1.07, 0.98, 1.08, 0.22]
